Hello, the source for this data is ChEMBL document CHEMBL1125389, in case you need it.

Target: Renin (Homo sapiens, UniProt P00797)
Sequence (P00797 whole entry): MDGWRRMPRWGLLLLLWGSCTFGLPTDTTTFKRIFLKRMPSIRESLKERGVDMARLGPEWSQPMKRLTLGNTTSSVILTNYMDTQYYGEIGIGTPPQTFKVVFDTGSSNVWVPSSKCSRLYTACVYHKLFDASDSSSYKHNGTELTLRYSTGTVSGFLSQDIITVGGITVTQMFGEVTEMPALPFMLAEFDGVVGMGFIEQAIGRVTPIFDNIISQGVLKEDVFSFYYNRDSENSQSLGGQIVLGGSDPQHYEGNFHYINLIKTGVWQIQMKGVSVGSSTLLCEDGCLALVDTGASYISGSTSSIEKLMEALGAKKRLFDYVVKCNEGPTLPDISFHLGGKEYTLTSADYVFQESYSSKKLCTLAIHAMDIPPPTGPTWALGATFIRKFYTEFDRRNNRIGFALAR
Assay: Compound was evaluated for the inhibition of human plasma renin at pH 7.4
pIC50: −log10 of the molar value.
# pIC50 listing for each entry below
Metric Name: pIC50

>>> print(df.to_string())
                                   compound  qual  value
0  CCCCNC(=O)[C@@H](C[C@H](O)[C@H](CC1CCCCC1)NC(=O)[C@H](CCCC)N1CC[C@H](c2ccccc2)[C@H](NC(=O)OC(C)(C)C)C1=O)C(C)C     =   6.87
1  CCCCNC(=O)[C@@H](C[C@H](O)[C@H](CC1CCCCC1)NC(=O)[C@H](CCCC)NC(=O)C(Cc1ccccc1)NC(C)=O)C(C)C (some centres undefined)     =   9.08
2  CCCCNC(=O)[C@@H](C[C@H](O)[C@H](CC1CCCCC1)NC(=O)[C@H](CCCC)N1Cc2ccccc2C[C@H](NC(=O)OC(C)(C)C)C1=O)C(C)C     =   5.76
3  CCCCNC(=O)[C@@H](C[C@H](O)[C@H](CC1CCCCC1)NC(=O)[C@H](CCCC)N1Cc2ccccc2C[C@H](N2C(=O)c3ccccc3C2=O)C1=O)C(C)C     <   4.70

----------
Biological target: Renin (Homo sapiens, UniProt P00797)
Experiment: Compound was evaluated for the inhibition of human plasma renin at pH 7.4
pIC50: −log10 of the molar value.

Molecule	System	pIC50
CCCCNC(=O)[C@@H](C[C@H](O)[C@H](CC1CCCCC1)NC(=O)[C@H](CCCC)N1CC[C@@H](c2ccccc2)[C@H](NC(=O)OC(C)(C)C)C1=O)C(C)C	Renin (Homo sapiens, UniProt P00797)	5.23
CCCCNC(=O)[C@@H](C[C@H](O)[C@H](CC1CCCCC1)NC(=O)[C@H](CCCC)N1Cc2ccccc2C[C@H](NC(C)=O)C1=O)C(C)C	Renin (Homo sapiens, UniProt P00797)	6.68
CCCCNC(=O)[C@@H](C[C@H](O)[C@H](CC1CCCCC1)NC(=O)[C@H](CCCC)N1Cc2ccccc2C[C@H](N)C1=O)C(C)C	Renin (Homo sapiens, UniProt P00797)	5.69
CCCCNC(=O)[C@@H](C[C@H](O)[C@H](CC1CCCCC1)NC(=O)[C@H](CCCC)N1CC[C@H](c2ccccc2)[C@H](NC(C)=O)C1=O)C(C)C	Renin (Homo sapiens, UniProt P00797)	7.68
CCCCNC(=O)[C@@H](C[C@H](O)[C@H](CC1CCCCC1)NC(=O)[C@H](CCCC)NC(=O)C(Cc1ccccc1)N1C(=O)c2ccccc2C1=O)C(C)C (stereo partly specified)	Renin (Homo sapiens, UniProt P00797)	7.06
CCCCNC(=O)[C@@H](C[C@H](O)[C@H](CC1CCCCC1)NC(=O)[C@H](CCCC)NC(=O)C(Cc1ccccc1)NC(=O)OC(C)(C)C)C(C)C (stereo partly specified)	Renin (Homo sapiens, UniProt P00797)	8.68
